System: IL-1β production in PMA-differentiated THP-1 cells
test.name: IL-1β production in PMA-differentiated THP-1 cells stimulated with gramicidin (hTHP-1 assay, HTRF readout; Procedures 1-3)
Format: cell-based, human
measurement.context: Homo sapiens, THP-1, hTHP-1 assay containing 2% fetal bovine serum; average; given as bound; read-out: hTHP-1 IC50 (Average IC50 of compounds in hTHP-1 assay)
measurement.label: IC50

{"compound": "CN1CCc2cc(S(N)(=O)=NC(=O)Nc3c4c(cc5c3CCC5)CCC4)ccc2C1 (single isomer, unassigned)", "measurement.label": "IC50", "reading": "> 30 µM"}
{"compound": "CC(C)c1cc(F)cc(C(C)C)c1NC(=O)N=S(N)(=O)c1cnc2n1CCC2 (stereo not shown)", "measurement.label": "IC50", "reading": "> 30 µM"}
{"compound": "CC(C)c1cc(C#N)cc(C(C)C)c1NC(=O)N=S(N)(=O)c1ccc(C(C)(C)O)c(CO)c1 (single isomer, unassigned)", "measurement.label": "IC50", "reading": "> 30 µM"}
{"compound": "CC(C)(O)c1ncc(S(N)(=O)=NC(=O)Nc2c3c(cc4c2C(O)CC4)CCC3)s1 (single isomer, unassigned)", "measurement.label": "IC50", "reading": "> 30 µM"}
{"compound": "CC(C)c1ccc(S(N)(=O)=NC(=O)Nc2c3c(cc4c2CCC4)CCC3)cn1 (single isomer, unassigned)", "measurement.label": "IC50", "reading": "> 30 µM"}
{"compound": "CCc1ccc2cn(C)nc2c1NC(=O)N=S(N)(=O)c1ncc(C(C)(C)O)s1 (single isomer, unassigned) [Example 329]", "measurement.label": "IC50", "reading": "> 30 µM"}
{"compound": "CC(C)c1cc(C#N)cc(C(C)C)c1NC(=O)N=S(N)(=O)c1sc(C(C)(C)O)nc1CO (single isomer, unassigned)", "measurement.label": "IC50", "reading": "> 30 µM"}
{"compound": "CNS(=O)(=NC(=O)Nc1c2c(cc3c1CCC3)CCC2)c1ccc(CN(C)C)cc1 (single isomer, unassigned)", "measurement.label": "IC50", "reading": "> 30 µM"}
{"compound": "CC(C)c1cc(-c2ccccc2CO)cc(C(C)C)c1NC(=O)N=S(N)(=O)c1ccc(CN(C)C)cc1 (stereo not shown)", "measurement.label": "IC50", "reading": "> 30 µM"}
{"compound": "Cn1ncc2cc(S(N)(=O)=NC(=O)Nc3c4c(cc5c3CCC5)CCC4)ccc21 (single isomer, unassigned)", "measurement.label": "IC50", "reading": "> 30 µM"}
{"compound": "CC(=O)N(C)Cc1ccc(S(N)(=O)=NC(=O)Nc2c3c(cc4c2CCC4)CCC3)cc1 (single isomer, unassigned)", "measurement.label": "IC50", "reading": "> 30 µM"}
{"compound": "CC(C)c1cc(OC(F)F)cc(C2CC2)c1NC(=O)N=S(N)(=O)c1ccc(CN(C)C)cc1 (single isomer, unassigned)", "measurement.label": "IC50", "reading": "> 30 µM"}
{"compound": "CC(C)c1cc(C#N)cc(C(C)C)c1NC(=O)N=S(N)(=O)c1ccc(S(C)(=O)=O)cc1 (single isomer, unassigned)", "measurement.label": "IC50", "reading": "> 30 µM"}
